# SYSTEM_UNDER_TEST: HCV NS3 protease genotype 3a (3A-1) (Hepatitis C virus genotype 3a)
# TEST_NAME: HCV NS3 protease time-resolved fluorescence (TRF) assay, genotype 3a
# Assay type: biochemical
# SETTINGS: Ki 3a
# Excerpt: The HCV NS3 protease inhibitory activity of the present compounds may be tested using assays known in the art. One such assay is HCV NS3 protease time-resolved fluorescence (TRF) assay as described below and in International Patent Application Publication No. WO2006/102087. […] Product fluorescence is detected using either a VICTOR V2 or FUSION fluorophotometer (Perkin Elmer Life and Analytical Sciences) with excitation at 340 nm and emission at 615 nm with a 400 μs delay. […]
PARAMETER_MEASURED: Ki

{"MOLECULE": "C=C[C@@H]1C[C@]1(NC(=O)[C@@H]1C[C@@H]2CN1C(=O)[C@H](C(C)(C)C)NC(=O)O[C@@H]1C[C@H]1CCCCCc1c(nc3ccccc3c1OCCCCN1CCOCC1)O2)C(=O)NS(=O)(=O)C1(C)CC1 [Example 150]", "Ki": "1.3 nM"}
{"MOLECULE": "C=C[C@@H]1C[C@]1(NC(=O)[C@@H]1C[C@@H]2CN1C(=O)[C@H](C(C)(C)C)NC(=O)O[C@@H]1C[C@H]1CCCCCc1c(nc3ccccc3c1OCCCNCCc1cccc3ccccc13)O2)C(=O)NS(=O)(=O)C1(C)CC1 [Example 189]", "Ki": "3.4 nM"}
{"MOLECULE": "COc1c2c(nc3ccccc13)O[C@@H]1C[C@@H](C(=O)N[C@]3(C(=O)NS(=O)(=O)C4CC4)C[C@H]3C3CC3)N(C1)C(=O)[C@H](C1CCCC1)NC(=O)O[C@@H]1CCC[C@H]1CC/C=C/C2 [Example 13]", "Ki": "15 nM"}

Query molecule follows.
Q: Print HCV NS3 protease genotype 3a (3A-1) (Hepatitis C virus genotype 3a) Ki for C=C[C@@H]1C[C@]1(NC(=O)[C@@H]1C[C@@H]2CN1C(=O)[C@H](C(C)(C)C)NC(=O)O[C@H]1C[C@@H]1CCCCCc1c(nc3ccncc3c1OC1CCN(C)CC1)O2)C(=O)NS(=O)(=O)C1(C)CC1 [Example 295] .
A: 1.07 nM
